This collection of values is drawn from the RNAGym collection of RNA variant scans (doi:10.7554/elife.80360).

B1: HDV Ribozyme (parent)
chain: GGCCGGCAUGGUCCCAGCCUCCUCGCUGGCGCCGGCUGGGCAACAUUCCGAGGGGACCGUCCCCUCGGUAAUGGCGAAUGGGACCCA

# Variants of: B1
# experimentDescription: self-cleavage, relative activity (ratio to wild type); higher = more cleavage; co-transcriptional
quantityMeasured: self-cleavage
Form: value (number only, do not type unit).

Exercise: Return reported self-cleavage; argument: C36A C44G
Solution: 0.125

Further cases:
Exercise: Which self-cleavage value is on record for G28U G55A ?
Solution: 0.0712

Exercise: Dear colleague, I am looking for the recorded self-cleavage of the following variant: C14G C30A
Solution: 0.0396

Exercise: Need self-cleavage of C22G U72A , thanks.
Solution: 0.196

Exercise: self-cleavage for C62U G68A ?
Solution: 0.946

Exercise: What self-cleavage value was documented for this variant, G59U A83C ?
Solution: 0.34

Exercise: Field request: self-cleavage | item: U69C A83U
Solution: 0.431

Exercise: For G25C U79G , what is its reported self-cleavage?
Solution: 0.0594

Exercise: Fill in: self-cleavage of U23G C61A is ___
Solution: 0.743

Exercise: If you can, please state the reported self-cleavage value of C21G U65C .
Solution: 0.113

Exercise: Find the recorded self-cleavage belonging to G35A G82A and report it.
Solution: 0.265

Exercise: Param item = C3U G68U ; retrieve measured self-cleavage.
Solution: 0.866

Exercise: Requested field: self-cleavage. Item: G38C G55A
Solution: 0.124
